- assay.comment: osmotic lysis modulators in infected erythrocytes, primary screen, PSAC antagonist project, cell-based, P. falciparum Indochina, OD700, 3 h (AID 1156)
- particulars: higher = more signal, called active from +8 up or from −8 down
Given measured z-score, output yes (1) if it is greater than or equal to 0.01 and no (0) if not.

Example entries and their recorded answers appear below.
smiles.record	qualitative.label
COC(=O)C[C@H]1O[C@]2(C(=O)N(Cc3ccccc3)c3ccc(I)cc32)[C@@H](C)[C@@H]1[Si](C)(C)c1ccc(OC)cc1	yes (1)
COCCOC(=O)N1C(=O)[C@@]2(c3cc(C#CCC(C(=O)OC)C(=O)OC)ccc31)[C@H](C(=O)N1CCN(c3ncccn3)CC1)[C@H]1C(=O)O[C@H](c3ccccc3)[C@H](c3ccccc3)N1[C@@H]2c1ccc(O)cc1	no (0)
COC(=O)C1=C(C)N(Cc2ccccc2)c2c(C(=O)OC)c(C(=O)OC)c(C(=O)OC)c(=O)n2[C@@H]1c1ccccc1	yes (1)
COC(=O)[C@@]1(Cc2ccccc2)[C@H]2c3cc(C(=O)N4CCCC4)n(CCN4CNCC4=O)c3C[C@H]2CN1C(=O)c1ccccc1	yes (1)
C=C(CCCC)/C(=C/C[C@H](OC(=O)c1ccncc1)c1cccc(OCCO)c1)c1cc(C(=O)OC)ccc1OC	yes (1)
O=C(CS)NCCCCCNC(=O)[C@H]1C[C@H]2C(=O)N[C@@H](Cc3ccccc3)C(=O)N2[C@H]1c1ccc(O)cc1	no (0)

In the following, a different molecule is considered.
I'd appreciate it if you could say whether COC(=O)c1c(CC[C@@H](CO)NC(=O)N[C@H](Cn2cc(-c3cncn3C)nn2)C(C)C)oc(C(C)=O)c1C(=O)OC has z-score at least equal to 0.01.
no (0)
